Molecular target: SARS-CoV-2 3CLpro (Severe acute respiratory syndrome coronavirus 2, UniProt P0DTD1)
Assay: biochemical
Type: biochemical
Conditions: B) EC50 without Triton X-100
pEC50: −log10 of the molar value.
Items are presented alongside their recorded pEC50.
Observable: pEC50

> print(dat)
                                   molecule  observable  quantitative.readout
1  O=c1cc(O)cc(/C=C/c2ccc(O)c(O)c2)o1 [Hispidin, reference compound]       pEC50                  5.74
2  Cc1c(OCC(F)(F)F)ccnc1C[S+]([O-])c1nc2ccccc2[nH]1 (centres unmarked) [Lansoprazole, reference compound]       pEC50                  5.84
3  Oc1cc2c(cc1O)CN(C(=S)NCCc1ccc(Cl)cc1)CCC2 [Capsazepine, reference compound]       pEC50                  6.18
4  N[C@@H](CCC(=O)N[C@@H](CSN=O)C(=O)NCC(=O)O)C(=O)O [S-Nitrosoglutathione, reference compound]       pEC50                  5.83
5                 O=C(O)/C=C/c1ccc(O)c(O)c1       pEC50                  5.27
